// provenance: PubChem BioAssay

The entries below are paired with their reported GFP response, % of DMSO.
Assay: TOR pathway CIT2 reporter hit retest – S. cerevisiae, GFP fusion, cherry picks, mother/daughter gates, confirmation (AID 2274)
Settings: S. cerevisiae CIT2-GFP strain, flow cytometry, 3 h; at 10 µM; hits give high values

[
  {
    "Molecule": "COc1cc(/C=C/C(=O)CC(=O)/C=C/c2ccc(O)c(OC)c2)ccc1O",
    "Units Text": "%",
    "GFP response, % of DMSO": 111
  },
  {
    "Molecule": "C[C@]12CC[C@H]3[C@@H](CCC4=CC(=O)CC[C@@]43C)[C@@H]1CC[C@@H]2C(=O)CO",
    "Units Text": "%",
    "GFP response, % of DMSO": 91.3
  },
  {
    "Molecule": "COc1ccc(C2=CC(=O)C=CC2=O)cc1",
    "Units Text": "%",
    "GFP response, % of DMSO": 108
  },
  {
    "Molecule": "Cc1cc(C)c(C(=O)Cn2cnc3cc([N+](=O)[O-])ccc3c2=O)cc1C",
    "Units Text": "%",
    "GFP response, % of DMSO": 97.2
  },
  {
    "Molecule": "Cc1ccc2[nH]c3c(c2c1)CCNC3=O",
    "Units Text": "%",
    "GFP response, % of DMSO": 111
  },
  {
    "Molecule": "O=C1c2ccccc2-c2onc3ccc(Oc4ccccc4)c1c23",
    "Units Text": "%",
    "GFP response, % of DMSO": 95.2
  },
  {
    "Molecule": "CN1CCN2c3ccccc3Cc3ccccc3C2C1 (stereo not drawn)",
    "Units Text": "%",
    "GFP response, % of DMSO": 99.1
  },
  {
    "Molecule": "Cn1c(=O)c(C(=O)NCCO)c(O)c2ccccc21",
    "Units Text": "%",
    "GFP response, % of DMSO": 96.9
  },
  {
    "Molecule": "O=C(/C=C/c1ccccc1)c1ccccc1",
    "Units Text": "%",
    "GFP response, % of DMSO": 102
  },
  {
    "Molecule": "CC(=O)c1ccc(CCCCCCCCCC(=O)O)s1",
    "Units Text": "%",
    "GFP response, % of DMSO": 99.1
  },
  {
    "Molecule": "O=[N+]([O-])c1cccc2cn[nH]c12",
    "Units Text": "%",
    "GFP response, % of DMSO": 103
  },
  {
    "Molecule": "OC(CCN1CCCCC1)(c1ccccc1)c1ccccc1",
    "Units Text": "%",
    "GFP response, % of DMSO": 96.5
  },
  {
    "Molecule": "CN(c1ccccc1)c1ccc(/C=c2\\s/c(=C(/C#N)C(=O)C(C)(C)C)n(Cc3ccco3)c2=O)cc1",
    "Units Text": "%",
    "GFP response, % of DMSO": 231
  },
  {
    "Molecule": "O=C1ON=C(c2ccc(Cl)cc2)/C1=C/c1ccc(O)cc1",
    "Units Text": "%",
    "GFP response, % of DMSO": 111
  },
  {
    "Molecule": "COc1ccc(-c2[nH]ncc2CN(CCO)Cc2cccs2)c(F)c1",
    "Units Text": "%",
    "GFP response, % of DMSO": 99.7
  },
  {
    "Molecule": "C[n+]1ccccc1/C=N/O",
    "Units Text": "%",
    "GFP response, % of DMSO": 111
  },
  {
    "Molecule": "CC(=O)OCC(=O)[C@@]1(O)CC[C@H]2[C@@H]3CCC4=CC(=O)CC[C@]4(C)[C@H]3[C@@H](O)C[C@@]21C",
    "Units Text": "%",
    "GFP response, % of DMSO": 99.7
  },
  {
    "Molecule": "CCOc1cc(C=O)ccc1OCCSc1ccc(C)cc1",
    "Units Text": "%",
    "GFP response, % of DMSO": 93.5
  },
  {
    "Molecule": "CCOC(=O)C(Cc1cc(C(C)=O)ccc1OC(C)C)C(=O)OCC",
    "Units Text": "%",
    "GFP response, % of DMSO": 96.4
  },
  {
    "Molecule": "CC(=O)OCC(=O)[C@H]1CC[C@H]2[C@@H]3CCC4=CC(=O)CC[C@]4(C)[C@H]3CC[C@]12C",
    "Units Text": "%",
    "GFP response, % of DMSO": 97.8
  },
  {
    "Molecule": "CCN(CC)c1ccc2cc(-c3nc(-c4ccc(OC)cc4)cs3)c(=O)oc2c1",
    "Units Text": "%",
    "GFP response, % of DMSO": 160
  },
  {
    "Molecule": "CN(C)CCCN1c2ccccc2Sc2ccc(Cl)cc21",
    "Units Text": "%",
    "GFP response, % of DMSO": 106
  },
  {
    "Molecule": "CC(C)CC(=O)Nc1ccc2oc(-c3ccncc3)nc2c1",
    "Units Text": "%",
    "GFP response, % of DMSO": 108
  }
]
